Would you kindly list Onset time for each of these compounds?
# Tested on: rats
# measurement-context: continuous tail vein infusion at 2×MIR, LORR maintained 1 hour, Table D4

// Onset time lookup, compound = C#CC(C)(C)OC(=O)c1cncn1[C@H](C)c1ccccc1 , result: 2 to 3 min

// Onset time lookup, compound = C#CC1(OC(=O)c2cncn2[C@H](C)c2ccccc2)COC1 , result: 2 to 3 min

// Onset time lookup, compound = COC(=O)C1(OC(=O)c2cncn2[C@H](C)c2ccccc2)CC1 [CPMM, cyclopropyl methoxycarbonyl methylate, reference compound] , result: 3 to 4 min

// Onset time lookup, compound = CC#CCOC(=O)c1cncn1[C@H](C)c1ccccc1 , result: 3 to 4 min

// Onset time lookup, compound = C#CC(C)OC(=O)c1cncn1[C@H](C)c1ccccc1 (stereo partly drawn) , result: 2 to 3 min

// Onset time lookup, compound = CCC#CC(C)OC(=O)c1cncn1[C@H](C)c1ccccc1 (stereo partly drawn) , result: 3 to 4 min

// Onset time lookup, compound = C#CC1(COC(=O)c2cncn2[C@H](C)c2ccccc2)CCC1 , result: 3 to 4 min

// Onset time lookup, compound = C=C=CC(C)OC(=O)c1cncn1[C@H](C)c1ccccc1 (stereo partly drawn) , result: 3 to 4 min

// Onset time lookup, compound = C[C@H](c1ccccc1)n1cncc1C(=O)OC(C)(C)C#CC#CC(C)(C)O , result: 3 to 4 min
